- TEST_METHOD_NOTES: Quantitative High-Throughput drug screen in 47 multiple myeloma cell lines against the NCATS MIPE library collection: Karpas417_ECACC cell viability assay (AID 1918961); further: potency means the concentration at half of the fitted maximal effect
- SETTINGS: Karpas417 myeloma viability, CellTiter-Glo ATP luminescence, 48 h
Results filed as inconclusive are left out. Activity calls are given as the source filed them. The call rests on the fitted dose curve; in most records, active means well fitted cell-killing curve with a large enough effect; inconclusive means small, poorly fitted or top-dose-only effect, or effect the other way; inactive means no such curve, though single readings can be large or run the other way. Non-standard residues stand in square brackets, D forms with d. Residues, ends and D or L forms follow the SMILES beside them. *: point of attachment. Nva = CCC[C@H](N)C(=O)O; Cbz = O=C(OCc1ccccc1)*
RECORDED_ENDPOINT: Potency

{"COMPOUND": "COc1ccc(C=Cc2cc(OC)c(OC)c(OC)c2)cc1NC(=O)[C@H](N)CO", "Potency": "590 nM (active)"}
{"COMPOUND": "Nc1ncn([C@@H]2O[C@H](CO)[C@@H](O)[C@@H]2O)c(=O)n1", "Potency": "9350 nM (active)"}
{"COMPOUND": "C[C@H]1COc2c(N3CCN(C)CC3)c(F)cc3c(=O)c(C(=O)O)cn1c23", "Potency": "inactive"}
{"COMPOUND": "CC1(C)[C@H](O[C@H]2O[C@H](C(=O)O)[C@@H](O)[C@H](O)[C@H]2O[C@@H]2O[C@H](C(=O)O)[C@@H](O)[C@H](O)[C@H]2O)CC[C@@]2(C)[C@H]1CC[C@]1(C)[C@H]2C(=O)C=C2[C@H]3C[C@@](C)(C(=O)O)CC[C@]3(C)CC[C@]21C", "Potency": "inactive"}
{"COMPOUND": "CCc1cc(C(C)=NOCc2ccc(C3CCCCC3)c(C(F)(F)F)c2)ccc1CN1CC(C(=O)O)C1", "Potency": "59 nM (active)"}

Q: Which value of Potency has been reported for CC(=O)O[C@H]1C[C@@H]2CC[C@H]3[C@H]4C[C@H]([N+]5(C)CCCCC5)[C@@H](OC(C)=O)[C@@]4(C)CC[C@@H]3[C@@]2(C)C[C@H]1N1CCCCC1 in the records?
A: inactive

Q: Which value of Potency has been reported for CC(C=CC(=O)NO)=C[C@@H](C)C(=O)c1ccc(N(C)C)cc1 in the records?
A: 105 nM (active)

Q: Which value of Potency has been reported for CCc1c(O)cc(O)c(C(=O)c2ccc(OCCN3CCOCC3)c(OC)c2)c1CC(=O)N(CCOC)CCOC in the records?
A: inactive

Q: Which value of Potency has been reported for CCCCCCCCCCCCCCCC(=O)OC[C@@H](NC(=O)C(Cl)Cl)[C@H](O)c1ccc([N+](=O)[O-])cc1 in the records?
A: inactive

Q: Which value of Potency has been reported for CCC[C@@H](C=O)NC(=O)[C@H](CC(C)C)NC(=O)[C@H](CC(C)C)NC(=O)OCc1ccccc1 (Cbz-Leu-Leu-[Nva]-aldehyde) in the records?
A: 296 nM (active)

Q: Which value of Potency has been reported for CC(O)(C#Cc1ccc2c(c1)N(c1nc(N)ncc1Cl)CC2)c1nccs1 (stereo not drawn) in the records?
A: 4690 nM (active)

Q: Which value of Potency has been reported for Cc1[nH]c(C=C2C(=O)Nc3ccccc32)c(C)c1CCC(=O)O in the records?
A: 23500 nM (active)

Q: Which value of Potency has been reported for COc1cc(C=CC(=O)CC(=O)C=Cc2ccc(O)c(OC)c2)ccc1O in the records?
A: 4810 nM (active)
